Tested on: Klebsiella pneumoniae
PROTOCOL TEXT: Antibacterial activity against Klebsiella pneumoniae
Assay type: functional
VALUE KIND: MIC (µg/mL)

Below, 3 molecules whose answers are already recorded.
* N=c1c(Cc2ccc(Cl)c(Cl)c2)c[nH]c(=O)n1-c1ccc(Cl)cc1Cl | 3.12
* Nc1c(Cc2ccc(Cl)c(Cl)c2)cnc(=S)n1-c1ccccc1 | 50
* Cc1ccc(-n2c(=O)[nH]cc(Cc3ccc(Cl)c(Cl)c3)c2=N)cc1Cl | 50

1: N=c1c(Cc2ccccc2)c[nH]c(=O)n1-c1ccc(Cl)cc1Cl
2: CC1(C)S[C@@H]2[C@H](NC(=O)[C@H](N)c3ccccc3)C(=O)N2[C@H]1C(=O)O [AMPICILLIN]
Quick check, higher MIC between 1 and 2 ? Kindly give the label for the entry you pick.
1
(1: 50 µg/mL, 2: 0.01 µg/mL)
